Assay notes: KLF5 expression inhibitors, confirmation, DLD-1 cells, luminescence (AID 1834)
Settings: DLD-1 KLF5 promoter firefly luciferase reporter, at 4 µM
The list shows a part of the results. Active and inactive are the calls of the source.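 Rule for the calls: active = inhibition above a set limit taken from the earlier primary screen (cut at about 63% in these data); inactive = the rest.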
Permitted responses: active, inactive

Some entries whose results are on file:
- Molecule smiles: "Cc1ccc(/C=N/NC(=O)COc2ccccc2-c2ccccc2)cc1"
  Group: "active"
- Molecule smiles: "Nc1ccc2nn(-c3ccc(Cl)cc3)nc2c1"
  Group: "inactive"
- Molecule smiles: "CN(NC(=O)c1ccccc1F)c1nc(C(F)(F)F)nc2ccccc12"
  Group: "active"
- Molecule smiles: "COc1ccc(C(=O)Nc2ccccc2C(=O)N/N=C/c2ccc(O)c(OC)c2)cc1"
  Group: "active"
- Molecule smiles: "CCn1c(SCC(=O)Nc2nccs2)nnc1-c1ccncc1"
  Group: "inactive"

Query :: What did the test return for `C[C@@H]1C[C@@H]2O[C@H]2/C=C\C=C\C(=O)Cc2c(Cl)c(O)cc(O)c2C(=O)O1` ?
Result :: active
